Biological target: mTOR/GbL/Raptor (mTORC1) (Homo sapiens, UniProt P42345)
Experiment: mTOR/GbL/Raptor (mTORC1) ELISA assay
Assay type: biochemical
Details: phosphorylation of 4E-BP1; 0.2 nM mTORC1, 10 μM ATP; read-out: IC50 in this assay (mTORC1 ELISA)
pIC50: −log10 of the molar value.
endpoint: pIC50

>>> resultvalue("Cc1nc2ncc(-c3ccc4c(c3)CN(c3nc(CNS(C)(=O)=O)nc5c3CC(C)(C)CC5)CCO4)cc2[nH]1 [Example 601]")
"≥ 8.00"
>>> resultvalue("Cc1nc(CN(C)C)nc(N2CCOc3ccc(-c4cnc5sc(N)nc5c4)cc3C2)c1-c1ccccc1 [Example 682]")
"7.30 to 8.00"
>>> resultvalue("CC(CO)NS(=O)(=O)c1cc(-c2ccc3c(c2)CN(c2ncnc4c2CC(C)(C)CC4)CCO3)cnc1N (stereo not drawn) [Example 368]")
"7.30 to 8.00"
>>> resultvalue("Cc1nc2cc(-c3ccc4c(c3)CN(c3nc(CF)nc5c3CC(C)(C)CC5)CCO4)ccc2[nH]1 [Example 676]")
"≥ 8.00"
>>> resultvalue("CSc1nc2c(c(N3CCOc4ccc(-c5ccc6nc(C)[nH]c6c5)cc4C3)n1)CC(C)C2 (stereo not drawn) [Example 71]")
"5.70 to 6.00"

Prompt: For CCNc1nc2ccc(-c3ccc4c(c3)CN(c3ccnc5c(F)cccc35)CCO4)cc2[nH]1 [Example 282] , write its pIC50.
Completion: 6.60 to 7.30

Prompt: For Cc1ncnc(N2CCOc3ccc(-c4ccc5nc(N)[nH]c5c4)cc3C2)c1Cc1ccc(F)cc1 [Example 189] , write its pIC50.
Completion: ≥ 8.00

Prompt: For Cc1nc2c(c(N3CCOc4ccc(-c5cnc(N)c(S(=O)(=O)N(C)C)c5)cc4C3)n1)CC(C)(C)CC2 [Example 417] , write its pIC50.
Completion: 6.60 to 7.30

Prompt: For COc1cc(-c2ccc3c(c2)CN(c2nc(CN(C)C)nc4c2CC(C)(C)CC4)CCO3)ccc1Cl [Example 326] , write its pIC50.
Completion: 6.00 to 6.60

Prompt: For CCc1nc(CN(C)C)nc(N2CCOc3ccc(-c4cnc5[nH]c(C)nc5c4)cc3C2)c1C [Example 344] , write its pIC50.
Completion: 6.00 to 6.60

Prompt: For COc1ccc2c(N3CCOc4ccc(-c5ccc6[nH]c(C)nc6c5)cc4C3)nc(CN(C)C)nc2c1 [Example 659] , write its pIC50.
Completion: 6.00 to 6.60

Prompt: For CN(C)Cc1nc2c(c(N3CCOc4ccc(-c5ccc(-c6ncc[nH]6)cc5)cc4C3)n1)CC(C)(C)CC2 [Example 325] , write its pIC50.
Completion: ≥ 8.00

Prompt: For Cc1nc2ccc(-c3ccc4c(c3)CN(c3nc(CNC5CCC5)nc5c3CC(C)(C)CC5)CCO4)cc2[nH]1 [Example 587] , write its pIC50.
Completion: 7.30 to 8.00

Prompt: For Cc1nc2ccc(-c3ccc4c(c3)CN(c3ncnc(C(C)C)c3C)CCO4)cc2[nH]1 [Example 62] , write its pIC50.
Completion: 6.00 to 6.60

Prompt: For Cc1nc2ccc(-c3ccc4c(c3)CN(c3ncnc(C)c3Cc3cc(F)cc(F)c3)CCO4)cc2[nH]1 [Example 91] , write its pIC50.
Completion: 7.30 to 8.00

These measurements were taken from patent US8648066B2.
